Just for reference, the supplement of paper PMC7125110 is where these values come from.

B1: glmS ribozyme (parent)
chain: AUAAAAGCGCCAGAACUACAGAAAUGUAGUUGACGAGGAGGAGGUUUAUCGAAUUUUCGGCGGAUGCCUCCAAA

Variants of: B1
Experiment: self-cleavage kobs at 40 uM GlcN6P; higher = faster cleavage; RNA array
Settings: with glucosamine-6-phosphate
Fewer inactive variants are shown than the library holds.
Result type: self-cleavage kobs at 40 uM GlcN6P

> print(dat)
                              sequence.text   data.value
1  AUAAAAGCGCCAGAACUACAGAAAUGUAGUUGACGCGGAGAAGGUUUAUCGAAUUUUCGGCGGAUGCCUCCAAA [A36C G41A]  < 1e-05 s⁻¹

[ask] Query self-cleavage kobs at 40 uM GlcN6P for AUAAAAGCGCCAGAACUACAGAAAUGUAGUUGACGAGGAGGAGGUUUAUCGAAAUUUCGGCGGAUGCCUACAAA [U54A C70A]
[reply] 5.92e-05 s⁻¹

[ask] Give the measured self-cleavage kobs at 40 uM GlcN6P for AUAAAAGCGCCAGAACUACAGAAAUGUAGUUGAAGAGGAGGAGGUUUAUCGAAUUUUCGGCGGAUGCCUUCAAA [C34A C70U]
[reply] < 1e-05 s⁻¹

[ask] Retrieve self-cleavage kobs at 40 uM GlcN6P measured for AUAAAAGCGCCAGAACUACAGAAAUGUAGUUGACGAGGAGGAGGUUUAUCGUAUUUGCGGCGGAUGCCUCCAAA [A52U U57G] and print it.
[reply] < 1e-05 s⁻¹

[ask] Read off the recorded self-cleavage kobs at 40 uM GlcN6P for AUAAAAGCGCCAGAACUACAGAAAUGUAGUUGACGAGGAGGAGGUUUAUCGAAAUUUCGGCGGAUGACUCCAAA [U54A C67A]
[reply] 0.000554 s⁻¹

[ask] Consider the variant AUAAAAGCGCAAGAACUACAGAAAUGUAGUUGACGAGGAAGAGGUUUAUCGAAUUUUCGGCGGAUGCCUCCAAA [C11A G40A] . State its measured self-cleavage kobs at 40 uM GlcN6P.
[reply] < 1e-05 s⁻¹

[ask] Answer with the recorded self-cleavage kobs at 40 uM GlcN6P of AUAAAAGCGCAAGUGCUACAGAAAUGUAAUUGACGAGGAGGAGUUUUAUCGAAUUUUCGGAGGAUGCCUCCAAA [C11A A14U A15G G29A G44U C61A] only.
[reply] < 1e-05 s⁻¹

[ask] For the variant AUAAAAGGGCCAGAACUACAGAAAUGUAGUUGUCGAGGAGGAGGUUUAUCGAAUUUUCGGCGGAUGCCUCCAAA [C8G A33U] , give its reported self-cleavage kobs at 40 uM GlcN6P.
[reply] < 1e-05 s⁻¹

[ask] Let me know recorded self-cleavage kobs at 40 uM GlcN6P for AUAAAAGCGCCAGAACUACAGAAAUGUAGUUGUCGAGGAGGUGGUUUAUCGAAUUUUCGGCGGAGGCCUCCAAA [A33U A42U U65G] , thanks.
[reply] < 1e-05 s⁻¹

[ask] Output measured self-cleavage kobs at 40 uM GlcN6P for this item: AUAAAAGCGCCUGAACUACAGAAAUGUAGUUGACGAGGAGGAGGUUUAUCGAAUUUUCGUCGGAUGCCUCCAAA [A12U G60U]
[reply] < 1e-05 s⁻¹
